Reference for the values: patent US11453711B2

Assay: Body weight and food intake in C57BL/6 mice, fusion protein conjugates, 30 nmol/kg daily 10 days
Assay type: in vivo
recorded-metric: Cumulative food intake reduction at 30 nmol/kg (% reduction compared to vehicle)(Day11) (%)
Give the quantity in %, number only.

Worked examples follow.
INSERT INTO assay_data (molecule, unit_descriptor, measured_number) VALUES
  ('MLC088: fusion polypeptide SEQ ID NO: 378 conjugated with Moiety C at 41C of Linker (conjugate, Moiety C conjugated at linker Cys41) HGEGTFTSDVSSYLEEQAAKEFIAWLVRGGGGAQPGAQPGAQPGAQPGAQPGAQPGAQPGAQPGQEPGAQPCQEPGAQPGQEPGAQPGQEPGAQPGQEPGAQPGQEPGAQPARQGDHCPLGPGRCCRLHTVRASLEDLGWADWVLSPREVQVTMCIGACPSQFRAANLHAQIKTSLHRLKPDTVPAPCCVPASYNPMVLIQKTDTGVSLQTYDDLLAKDCHCI', '%', 34.8),
  ('MLC081: fusion polypeptide SEQ ID NO: 374 conjugated with Moiety C at 35C of Linker (conjugate, Moiety C conjugated at linker Cys35) HGEGTFTSDVSSYLEEQAAKEFIAWLVRGGGGQEPGAQPGQEPGAQPGQEPGAQPGQEPGAQPGQCPGAQPGQEPGAQPGQEPGAQPGAQPGAQPGAQPGAQPGAQPGAQPARQGDHCPLGPGRCCRLHTVRASLEDLGWADWVLSPREVQVTMCIGACPSQFRAANLHAQIKTSLHRLKPDTVPAPCCVPASYNPMVLIQKTDTGVSLQTYDDLLAKDCHCI', '%', 39.0),
  ('MLC064: fusion polypeptide SEQ ID NO: 359 conjugated with Moiety A at 51K of Linker (conjugate, Moiety A conjugated at linker K51) HGEGTFTSDVSSYLEEQAAREFIAWLVRGGGGQEPGAQPGQEPGAQPGQEPGAQPGQEPGAQPGQEPGAQPGQEPGAQPGAKPGAQPGAQPGAQPGAQPGAQPGAQPGAQPARQGDHCPLGPGRCCRLHTVRASLEDLGWADWVLSPREVQVTMCIGACPSQFRAANLHAQIKTSLHRLRPDTVPAPCCVPASYNPMVLIQRTDTGVSLQTYDDLLARDCHCI', '%', 43.6);

Continue with the next molecule.
Could you please provide reported Cumulative food intake reduction at 30 nmol/kg (% reduction compared to vehicle)(Day11) for MLC017: fusion polypeptide SEQ ID NO: 264 conjugated with Moiety A at 55K of Linker (conjugate, Moiety A conjugated at linker K55) HGEGTFTSDVSSYLEEQAAREFIAWLVRGGGGQEPGAQPGQEPGAQPGQEPGAQPGQEPGAQPGQEPGAQPGQEPGAQPGAQPGAKPGAQPGAQPGAQPGAQPGAQPGAQPARQGDHCPLGPGRCCRLHTVRASLEDLGWADWVLSPREVQVTMCIGACPSQFRAANLHAQIKTSLHRLRPDTVPAPCCVPASYNPMVLIQRTDTGVSLQTYDDLLARDCHCI ? Thanks!
52.3
